src = patent US10662204B2

Parameter: MSRA (% modification) 10 μM 0.25 hr. Scope: all listed entries.
target: GDP-loaded KRAS (1-169) G12C, C51S, C80L, C118S (Homo sapiens, UniProt P01116, C118S/C51S/C80L/G12C); construct: GDP-loaded KRAS (1-169) G12C, C51S, C80L, C118S; assay: Mass Spectrometry Reactivity Assay (MSRA): covalent adduct of compound and KRAS G12C, Percent Modification; type: binding; conditions: 10 μM compound, 0.25 hr
Reply with just the number (in %).

compound | MSRA (% modification) 10 μM 0.25 hr (%)
C=CC(=O)N1CCN(c2nc(OC[C@@H]3CCCN3C)nc3c(Oc4c(Cl)ccc5[nH]ncc45)nc(Cl)cc23)CC1 [Example 09G] | 81
C=CC(=O)N1CCN(c2nc(OC[C@@H]3CCCN3C)nc3c(Oc4c(Cl)c(F)cc5[nH]ncc45)nc(Cl)cc23)C[C@@H]1C [Example 07G] | 77
C=CC(=O)N1CCN(c2nc(OCCN(C)C)nc3c(Oc4c(Cl)c(C)cc5[nH]ncc45)cccc23)CC1 [Example 15E] | 59
C=CC(=O)N1CCN(c2nc(OC[C@@H]3CCCN3C)nc3c(Oc4c(Cl)c(F)cc5[nH]ncc45)nccc23)CC1 [Example 01H] | 81
C=CC(=O)N1CCN(c2nc(OCCN(C)C)nc3c(Oc4c(Cl)c(C)cc5[nH]ncc45)nccc23)CC1 [Example 05E] | 72
C=CC(=O)N1CCN(c2ncnc3c(Oc4c(Cl)c(F)cc5[nH]ncc45)nc(Cl)cc23)C[C@H]1C [Example 37A] | 63

Turning now to a further compound:
Lab note: C=CC(=O)N1CCN(c2nc(OCC(C)(C)O)nc3c(Oc4c(Cl)c(F)cc5[nH]ncc45)nc(Cl)cc23)CC1 [Example 13G] gave MSRA (% modification) 10 μM 0.25 hr of 78

---

Parameter: IC50. Scope: all listed entries.
biological target: KRAS G12C (Homo sapiens, UniProt P01116, G12C); assay: Cell Activity Assay: accumulation of GDP-bound KRAS G12C in MIAPaCa-2 cells (Raf-1 RBD capture, MSD readout); format: cell-based; parameters: endogenous in cells; host or cells: MIAPaCa-2; conditions: 6 hours, assay limit is 30.00
Reply with just the number (in µM).

Worked examples, 5 compounds total:
compound | value reported
C=CC(=O)N1CCN(c2ncnc3c(Oc4c(C)ccc5[nH]ncc45)cc(C#N)cc23)CC1 [Example 14C] | 27.8
C=CC(=O)N1CCN(c2nc(OCC3(F)CCN(C)CC3)nc3c(Oc4c(Cl)c(F)cc5[nH]ncc45)nccc23)CC1 [Example 12I] | 0.12
C=CC(=O)N1CCN(c2nc(OC[C@@H]3C[C@@H](F)CN3C)nc3c(Oc4c(Cl)c(F)cc5[nH]ncc45)nc(Cl)cc23)CC1 [Example 16G] | 0.111
C=CC(=O)N1CCN(c2nc(O[C@H]3CN(C)C[C@@H]3OC)nc3c(Oc4c(Cl)c(F)cc5[nH]ncc45)nccc23)CC1 [Example 11I] | 0.321
C=CC(=O)N1CCN(c2nc(OC[C@@H]3CN(C)C[C@H]3OC)nc3c(Oc4c(Cl)c(F)cc5[nH]ncc45)nc(Cl)cc23)CC1 [Example 19G] | 0.051

Lab note: C=CC(=O)N1CCN(c2nc(Oc3cnn(C)c3)nc3c(Oc4c(Cl)c(F)cc5[nH]ncc45)nccc23)CC1 [Example 09I] gave IC50 of 0.398

Lab note: C#CCN1C[C@@H](OC)[C@H](Oc2nc(N3CCN(C(=O)C=C)CC3)c3ccnc(Oc4c(Cl)c(F)cc5[nH]ncc45)c3n2)C1 [Example 43I] gave IC50 of 0.019

Lab note: C=CC(=O)N1CCN(c2ncnc3c(Oc4c(Br)c(C)cc5[nH]ncc45)nccc23)CC1 [Example 13A] gave IC50 of 0.394

Lab note: C=CC(=O)N1CCN(c2nc(OCC3CCC(=O)N3C)nc3c(Oc4c(Cl)c(F)cc5[nH]ncc45)nc(Cl)cc23)CC1 (stereo not shown) [Example 14G] gave IC50 of 0.401

Lab note: C=CC(=O)N1CCN(c2ncnc3c(Oc4c(C)ccc5[nH]ncc45)cc(Br)cc23)CC1 [Example 13C] gave IC50 of 3.74

Lab note: C=CC(=O)N1CCN(c2ncnc3c(Oc4c(C(F)(F)F)ccc5[nH]ncc45)nccc23)CC1 [Example 04C] gave IC50 of 18.2

Lab note: C=CC(=O)N1CCN(c2nc(NCCC(=O)N(C)C)nc3c(Oc4c(C)ccc5[nH]ncc45)cccc23)CC1 [Example 06F] gave IC50 of 3.24

Lab note: C=CC(=O)N1CCN(c2ncnc3c(Oc4c(Cl)ccc5[nH]ncc45)nccc23)CC1 [Example 06A] gave IC50 of 6.75

Lab note: C=CC(=O)N1CCN(c2nc(O[C@@H]3CN(C(C)C)C[C@H]3OC)nc3c(Oc4c(Cl)c(F)cc5[nH]ncc45)nccc23)CC1 [Example 20I] gave IC50 of 0.016

Lab note: C=CC(=O)N1CCN(c2nc(OC[C@@H]3CCCN3C)nc3c(Oc4c(C)ccc5[nH]ncc45)nccc23)CC1 [Example 08B] gave IC50 of 2.56

Lab note: C=CC(=O)N1CCN(c2ncnc3c(Oc4c(Cl)c(F)cc5[nH]ncc45)nc(C#N)cc23)CC1 [Example 32A] gave IC50 of 0.681

---

Biological target: GDP-loaded KRAS (1-169) G12C, C51S, C80L, C118S (Homo sapiens, UniProt P01116, C118S/C51S/C80L/G12C)
Construct: GDP-loaded KRAS (1-169) G12C, C51S, C80L, C118S
Assay: Mass Spectrometry Reactivity Assay (MSRA): covalent adduct of compound and KRAS G12C, Percent Modification
Type: binding
Conditions: 10 μM compound, 0.25 hr
Description: Mass Spectrometry Reactivity Assay (MSRA) Compounds presented in the present invention covalently bind to KRAS G12C using MSRA to detect a covalent adduct of the exemplary compound and KRAS G12C. […] The percent of modified protein at the defined concentration of exemplary compound was calculated using the following formula: % mod=Num of modified peak/Sum of modified+unmodified. […]
reported metric: MSRA (% modification) 10 μM 0.25 hr
The reply must contain the numeric value and, after it, the unit.

molecule | value reported
C=CC(=O)N1CCN(c2nc(OCC3CCCO3)nc3c(Oc4c(Cl)c(F)cc5[nH]ncc45)nc(Cl)cc23)CC1 (stereo not shown) [Example 11G] | 77%
C=CC(=O)N1CCN(c2nc(OCCc3ncc[nH]3)nc3c(Oc4c(C)ccc5[nH]ncc45)cccc23)CC1 [Example 09F] | 64%
C=CC(=O)N1CCN(c2nc(OCC3CCOC3)nc3c(Oc4c(Cl)c(F)cc5[nH]ncc45)nc(Cl)cc23)CC1 (stereo not shown) [Example 12G] | 75%
C=CC(=O)N1CCN(c2nc(OC[C@H]3CCN(C)C3)nc3c(Oc4c(Cl)c(F)cc5[nH]ncc45)nccc23)CC1 [Example 18E] | 80%
C=CC(=O)N1CCN(c2nc(N3CC(C)(C#N)C3)nc3c(Oc4c(Cl)c(F)cc5[nH]ncc45)nc(Cl)cc23)CC1 [Example 02G] | 75%
C=CC(=O)N1CCN(c2nc(OC[C@H]3CCN(C)C3)nc3c(Oc4c(C)ccc5[nH]ncc45)nccc23)CC1 [Example 19E] | 33%

Lab note: C=CC(=O)N1CCN(c2nc(OC[C@H]3CCCN3C)nc3c(Oc4c(Cl)c(F)cc5[nH]ncc45)cccc23)CC1 [Example 20E] gave MSRA (% modification) 10 μM 0.25 hr of 8%

Lab note: C=CC(=O)N1CCN(c2nc(OCCN3CCCC3)nc3c(Oc4c(C)ccc5[nH]ncc45)nccc23)CC1 [Example 12B] gave MSRA (% modification) 10 μM 0.25 hr of 21%

---

Parameter: IC50. Scope: all listed entries.
Biological target: KRAS G12C (Homo sapiens, UniProt P01116, G12C)
Test: Cell Activity Assay: accumulation of GDP-bound KRAS G12C in MIAPaCa-2 cells (Raf-1 RBD capture, MSD readout)
Assay type: cell-based
Set-up: endogenous in cells; host or cells: MIAPaCa-2
Conditions: 6 hours, assay limit is 30.00
Experimental: Compounds presented in the present invention lead to the accumulation of the GDP bound Ras upon treatment of human cancer cell line. The accumulation of the GDP-bound KRAS G12C in cellular environment was measured based on the principle that KRAS G12C only binds to its downstream kinase; Raf-1 (MAP Kinase Kinase Kinase), when in its active-GTP bound state. In this state, Ras binded to a domain of Raf-1 kinase referred to as the Ras Binding Domain (RBD). […]
Reply with just the number (in µM).

Worked examples, 5 molecules total:
molecule | IC50 [µM]
C=CC(=O)N1CCN(c2ncnc3c(Oc4cc(O)cc5ccccc45)nccc23)CC1 | 29.7
C=CC(=O)N1CCN(c2nc(Oc3cccc4c3CN(C)CC4)nc3c(Oc4c(Cl)c(F)cc5[nH]ncc45)nccc23)CC1 [Example 42I] | 0.01
C=CC(=O)N1CCN(c2nc(OCCN(C)C)nc3c(Oc4c(Cl)c(C)cc5[nH]ncc45)cc(Cl)cc23)CC1 [Example 13E] | 0.452
C=CC(=O)N1CCN(c2ncnc3c(Oc4c(Cl)ccc5[nH]ncc45)cccc23)CC1 [Example 08C] | 2.98
C=CC(=O)N1CCN(c2ncnc3c(Oc4c(C)c(Cl)cc5[nH]ncc45)nccc23)C[C@H]1C [Example 24A] | 4.72

Turning now to a further molecule:
Lab note: C=CC(=O)N1CCN(c2nc(O[C@@H]3CN(C)C[C@H]3OC)nc3c(Oc4c(Cl)c(F)cc5[nH]ncc45)nccc23)[C@@H](C)C1 [Example 33I] gave IC50 of 0.039
